# target.of.assay: Aβ1-42 (Homo sapiens)
# Sequence (P05067 672-713 limits assumed): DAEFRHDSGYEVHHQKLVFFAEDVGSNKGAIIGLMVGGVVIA
outcome.measure: IC50 (µM)

COc1ccc(O)c(/C=N/NC(=O)c2cccc3c2NC(=O)C3)c1 = 4.2
COc1ccc(O)c(/C=N/NC(=O)c2ccc3ccccc3c2O)c1 = 1.2
COc1ccc(O)c(/C=N/NC(=O)c2ccccc2O)c1 = 15.4
O=C(N/N=C/c1cccc(O)c1O)c1ccccc1O = 17.4

a = O=C(C/C(=N/NC(=O)c1sc2cc(F)ccc2c1Cl)C(F)(F)F)c1cc2ccccc2s1
b = O=C(C/C(=N\NC(=O)c1sc2cc(F)ccc2c1Cl)C(F)(F)F)c1ccco1
Given the listed items, does a or b have the lesser reported IC50? Answer by quoting the chosen item's label. a

---

pIC50: −log10 of the molar value.
// endpoint pIC50 / system Aβ1-42 (Homo sapiens)
outcome.measure: pIC50

A = COc1cc(Br)c(O)c(/C=N/NC(=O)c2ccccc2O)c1
B = O=C(N/N=C/c1cc(Br)cc(Br)c1O)c1ccccc1O
C = Cc1ccc(C(=O)N/N=C/c2cccc(C)c2O)cn1
D = O=C(C/C(=N/NC(=O)c1cc(Cl)ccc1O)C(F)(F)F)c1cccs1
Number of compounds to sort: 4. Sort criterion: pIC50, ascending. Labels, ranked as asked. A, D, C, B

P = O=C(N/N=C/c1ccc(N2CCOCC2)cc1O)c1ccccc1O
Q = O=C(C/C(=N/NC(=O)c1sc2ccccc2c1Cl)C(F)(F)F)c1cccs1
R = C/C(=N\NC(=O)c1cc(C)n[nH]1)c1ccccc1O
Given 3 compounds, produce a descending ranking by pIC50. Labels, ranked as asked. Q, P, R

I = O=C(C/C(=N/NC(=O)c1[nH]c2ccccc2c1Cl)C(F)(F)F)c1cccs1
II = Cc1occc1C(=O)N/N=C/c1cc(Br)cc(Br)c1O
Given the listed items, does I or II have the lesser reported pIC50? Answer by quoting the chosen item's label. I

---

# target.of.assay: Aβ1-42 (Homo sapiens)
# test.details: FRET assay of Aβ1-42 oligomer (ADDL) assembly inhibition
# Assay type: biochemical
# condition.summary: 0.2 μM FITC-Aβ(1-42) and 0.8 μM Aβ(1-42), 37° C., six concentrations from about 10 μM to about 0.03 μM
pIC50: −log10 of the molar value.
outcome.measure: pIC50

1 = CCOc1cccc(/C=N/NC(=O)c2ccccc2O)c1O
2 = Cc1csc(C(=O)N/N=C/c2cc(Cl)ccc2O)c1Cl
# returns the entry with the larger pIC50; inputs 1 and 2 Answer by quoting the chosen item's label. 2
(2: 4.63, 1: 4.41)
